tested on: SEM cells; assay: cell viability relative to DMSO control; higher = less cytotoxic; conditions: RPMI 5 mM glucose + 10% FBS; 48 h; 0.00702 µM
Below, each entry is listed alongside its reported cell viability.
RECORDED_ENDPOINT: cell viability (%)

Cc1c(NC(=O)OC[C@@H]2COCCN2)cn2ncnc(Nc3ccc4c(cnn4Cc4cccc(F)c4)c3)c12    103
Cc1c(C(=O)NN2CCCCC2)nn(-c2ccc(Cl)cc2Cl)c1-c1ccc(Cl)cc1    118
O=C(O[C@H]1C[C@H]2CC[C@@H](C1)[N+]21CCCC1)C(O)(c1ccccc1)c1ccccc1.[Cl-]    88.4
COc1ccc(-c2nc(N3CCOCC3)c3sc(CN(C)c4ncc(C(=O)NO)cn4)cc3n2)cn1    49.9
O=C(O)c1ccc2c(c1)nc(Nc1cccc(Cl)c1)c1ccncc12    98.5
COc1ccc(-n2nc(C(N)=O)c3c2C(=O)N(c2ccc(N4CCCCC4=O)cc2)CC3)cc1    117
CC(C)CC(=O)N[C@H](C(=O)N[C@H](C(=O)N[C@@H](CC(C)C)[C@@H](O)CC(=O)N[C@@H](C)C(=O)N[C@@H](CC(C)C)[C@@H](O)CC(=O)O)C(C)C)C(C)C    115
COc1cc2c(cc1OC)CC(=O)N(CCCN(C)C[C@H]1Cc3cc(OC)c(OC)cc31)CC2.Cl    96.3

---

system: NOMO1; experiment: cell viability relative to DMSO control; higher = less cytotoxic; conditions: HPLM + 10% dialyzed FBS; 48 h; 0.0211 µM
Below, each entry is listed alongside its reported cell viability.
RECORDED_ENDPOINT: cell viability (%)

N[C@H](CSC(c1ccccc1)(c1ccccc1)c1ccccc1)C(=O)O    135
Cn1c(CNc2ccc(C(=N)N)cc2)nc2cc(C(=O)N(CCC(=O)O)c3ccccn3)ccc21    109
CCC(C)(Oc1ccc(C2(c3ccc(OC(C)(CC)C(=O)O)cc3)CCCCC2)cc1)C(=O)O (centres undefined)    108
N=C(NCCCCCCNC(=N)NC(=N)Nc1ccc(Cl)cc1)NC(=N)Nc1ccc(Cl)cc1    90.4
CCC[C@H]1C[C@H](C(=O)N[C@@H]([C@@H]2O[C@@H](SC)[C@@H](O)[C@@H](O)[C@H]2O)[C@H](C)Cl)N(C)C1    119
COc1ncc(-c2ccc3nccc(-c4ccnnc4)c3c2)cc1N[S+](=O)([O-])c1ccc(F)cc1F    89.6
O=C1c2c(O)ccc(O)c2C(=O)c2c(NCCNCCO)ccc(NCCNCCO)c21    131
C\C1=C(\C=C(\C#N)C(=O)N1)C2=CC=NC=C2    116
COc1cc2ncnc(Nc3cc(Br)c(O)c(Br)c3)c2cc1OC    112

---

test system: P12-Ichikawa; assay: cell viability relative to DMSO control; higher = less cytotoxic; conditions: RPMI 5 mM glucose + 10% dialyzed FBS; 48 h; 0.00234 µM
RECORDED_ENDPOINT: cell viability (%)

CNC(=O)c1ccc(N2C(=S)N(c3ccc(C#N)c(C(F)(F)F)c3)C(=O)C23CCC3)cc1F    87.7
Cc1cn([C@@H]2O[C@H](CO)[C@@H](O)[C@@H]2F)c(=O)[nH]c1=O    110
C/C=C1\C2C=C(C)CC1(N)c1ccc(=O)[nH]c1C2 (stereo not drawn)    98
Nc1nc(N)c2nc(CNc3ccc(C(=O)NC(CCC(=O)O)C(=O)O)cc3)cnc2n1 (stereo not drawn)    95.5
CN(C)[C@H]\1[C@@H]2C[C@H]3C(=C(O)\[C@]2(O)C(=O)\C(=C1O)C(N)=O)/C(=O)C4=C(O)C=CC=C4[C@@]3(C)O    101
C[C@@]12C[C@@]3(O)O[C@@H](O1)[C@]1(COC(=O)c4ccccc4)[C@H]3C[C@@]12O[C@@H]1O[C@H](CO)[C@@H](O)[C@H](O)[C@H]1O    95.4
CC(C)=CC[C@@H](O)C/1=C/C(=O)C2=C(O)C=CC(=C2C1=O)O    106
CCOC(=O)C/1=C(O)/C(=O)N(CC2=CC=CC=C2)C1    109

---

system: SEM cells; test: cell viability relative to DMSO control; higher = less cytotoxic; conditions: HPLM + 10% dialyzed FBS; 48 h; 0.0632 µM
Below, each entry is listed alongside its reported cell viability.
RECORDED_ENDPOINT: cell viability (%)

CN1\C(=C(\O)C2=CC=CC=C2[S+]1([O-])=O)C(=O)NC3=NC=C(C)S3    87.8
CN(C)C1=CC=C(C=C1)C(C2=CC=C(C=C2)N(C)C)=C/3\C=C/C(/C=C3)=[N+](C)C    116
N=C(NCCCCCCNC(=N)NC(=N)Nc1ccc(Cl)cc1)NC(=N)Nc1ccc(Cl)cc1    101
O=C(O[C@H]1C[C@H]2CC[C@@H](C1)[N+]21CCCC1)C(O)(c1ccccc1)c1ccccc1.[Cl-]    115
O=C(O)c1ccc2c(c1)nc(Nc1cccc(Cl)c1)c1ccncc12    110
C[C@@H]1[C@H](O)[C@@H](C)/C=C/C=C/C=C/C=C/C=C/C=C/C=C/[C@H](O[C@@H]2O[C@H](C)[C@@H](O)[C@H](N)[C@@H]2O)C[C@@H]2O[C@](O)(C[C@@H](O)C[C@@H](O)[C@H](O)CC[C@@H](O)C[C@@H](O)CC(=O)O[C@H]1C)C[C@H](O)[C@H]2C(=O)O    110
CC(C)(C(=O)NCC(F)(F)C(F)(F)F)C(=O)N[C@@H]1C(=O)Nc2ccccc2-c2ccccc21    127
CC[C@H](C)[N]1C=C(C)C2=C1C=C(C=C2C(=O)NC\C3=C(C)\C=C(\C)NC3=O)C4=CC=C(N=C4)N5CCNCC5    114
CC(C)CC(=O)N[C@H](C(=O)N[C@H](C(=O)N[C@@H](CC(C)C)[C@@H](O)CC(=O)N[C@@H](C)C(=O)N[C@@H](CC(C)C)[C@@H](O)CC(=O)O)C(C)C)C(C)C    74.7
O=C(O)C1=NC(C(=O)O)CC(/C=C/N2c3cc(O)c(OC4OC(CO)C(O)C(O)C4O)cc3CC2C(=O)O)=C1 (configuration not stated)    101
CN1CCN(CC1)C2=C3OCN(C)N4\C=C(C(O)=O)/C(=O)C(=C34)C=C2F    115
COc1cc2c(cc1OC)CC(=O)N(CCCN(C)C[C@H]1Cc3cc(OC)c(OC)cc31)CC2.Cl    112
Cc1cc2c(F)c(Oc3ncnn4cc(OC[C@@H](C)O)c(C)c34)ccc2[nH]1    106
COC1=CC=C(C=C1)C/2=C/OC3=C(C(=CC(=C3)O)O)C2=O    115
CC(C)C(=O)Nc1ccc([N+](=O)[O-])c(C(F)(F)F)c1    122
O=C1c2c(O)ccc(O)c2C(=O)c2c(NCCNCCO)ccc(NCCNCCO)c21    95
CC1COC2(CCN(CC2)C/3=N/C(=O)C4=CC(=CC(=C4S3)[N+]([O-])=O)C(F)(F)F)O1 (configuration not stated)    93.9
CC(C)C[C@@H](C=O)NC(=O)[C@H](CC(C)C)NC(=O)[C@H](CC(C)C)NC(=O)OCc1ccccc1    148
C\C1=C(\C=C(C#N)/C(=O)N1)C2=C[N]3C=CN=C3C=C2    82.2
C[C@]12CCC(=O)C=C1CC[C@@H]1[C@@H]2CC[C@@]2(C)[C@H]1CC[C@]2(C)O    86.7
COc1cc2ncnc(Nc3ccc(F)c(Cl)c3)c2cc1NC(=O)/C=C/CN1CCCCC1    105
C=CC[C@@H]1/C=C(\C)C[C@H](C)C[C@H](OC)[C@H]2O[C@@](O)(C(=O)C(=O)N3CCCC[C@H]3C(=O)O[C@H](/C(C)=C/[C@@H]3CC[C@@H](O)[C@H](OC)C3)[C@H](C)[C@@H](O)CC1=O)[C@H](C)C[C@@H]2OC    115
C/C=C1\C2C=C(C)CC1(N)c1ccc(=O)[nH]c1C2 (configuration not stated)    28.9
OC[C@H]1OCC(O1)[N@@]2C=CC(N)=NC2=O (some centres not stated)    115
O=C(c1ccc(Nc2nccc(-c3cc4ccccc4s3)n2)cc1)N1CCC(N2CCCC2)CC1    102
COc1ccc(-c2ccc3c(N4CCOC[C@@H]4C)nc(N4CCOC[C@@H]4C)nc3n2)cc1CO    87.3
Cc1cn(-c2cc(NC(=O)c3ccc(C)c(Nc4nccc(-c5cccnc5)n4)c3)cc(C(F)(F)F)c2)cn1    107
CCC(C)(Oc1ccc(C2(c3ccc(OC(C)(CC)C(=O)O)cc3)CCCCC2)cc1)C(=O)O (configuration not stated)    109
CCOC(=O)\C1=C(/C)N\C2=C(C1C3=CC=C(C=C3)C4=CC=CC=C4)\C(=O)CC(C)(C)C2 (configuration not stated)    104
CCn1c(-c2nonc2N)nc2cnc(Oc3cccc(NC(=O)c4ccc(OCCN5CCOCC5)cc4)c3)cc21    111
FC(F)c1nc2ccccc2n1-c1nc(N2CCOCC2)nc(N2CCOCC2)n1    73.8
NC(=O)c1ccc(I)c([N+](=O)[O-])c1    126

The reported measurements were obtained from the supplement of paper PMC11451515.
